FYI, the data here is from patent US20260125382A1.

target: CDK9 (Homo sapiens); construct: endogenous in cells; host or cells: MDA-MB-231; experiment: CDK protein degradation activity (Western blotting), CDK9; assay type: cell-based; settings: MDA-MB-231 cells, 10 μM, 16 hours, Western blot
Would you kindly list Enzyme degradation CDK9 (% remaining) @ 10 μM for each of these compounds?
Give bare numbers, in %.

Recorded results for 8 compounds are shown here.
compound	measurement-target	result-value
CC(=O)N[C@H]1C[C@@H](n2cnc3c(NCC4CCN(CC5CCN(C(=O)COc6ccc7c(c6)C(=O)N([C@H]6CCC(=O)NC6=O)C7=O)CC5)CC4)ncnc32)C1	CDK9 (Homo sapiens)	30
O=C1CC[C@H](n2nnc3ccc(N4CCN(C5CC6(CCN(c7ccc(Nc8ncnc9c8ncn9C8CC(NC(=O)Cc9ccccc9)C8)cc7)CC6)C5)CC4)cc3c2=O)C(=O)N1 (stereo partly shown)	CDK9 (Homo sapiens)	10
O=C1CC[C@H](N2C(=O)c3cccc(OCC(=O)N4CCC5(CC(N6CCN(c7ccc(Nc8ncnc9c8ncn9[C@H]8C[C@@H](NC(=O)Cc9ccccc9)C8)cc7)CC6)C5)C4)c3C2=O)C(=O)N1 (stereo partly shown)	CDK9 (Homo sapiens)	0
Cc1cccc(C(=O)NC2CC(n3cnc4c(NC5CCN(C(=O)CC6CCN(C(=O)CNc7cccc8c7C(=O)N([C@H]7CCC(=O)NC7=O)C8=O)CC6)CC5)ncnc43)C2)n1 (stereo partly shown)	CDK9 (Homo sapiens)	10
Cc1cccc(C(=O)NC2CC(n3cnc4c(NCc5cccc(N6CCN(CC7CCN(C(=O)COc8ccc9c(c8)C(=O)N([C@H]8CCC(=O)NC8=O)C9=O)CC7)CC6)c5)ncnc43)C2)n1 (stereo partly shown)	CDK9 (Homo sapiens)	0
O=C1CC[C@H](N2C(=O)c3ccc(N4CCN(CCCC5CCN(c6ccc(Nc7ncnc8c7ncn8C7CC(NC(=O)Cc8ccccc8)C7)cc6)CC5)CC4)cc3C2=O)C(=O)N1 (stereo partly shown)	CDK9 (Homo sapiens)	0
O=C1CC[C@H](N2C(=O)c3cc(F)c(N4CCC(C(=O)N5CCC(CCN6CCN(c7ccc(Nc8ncnc9c8ncn9[C@H]8C[C@@H](NC(=O)Cc9ccccc9)C8)cc7)CC6)CC5)CC4)cc3C2=O)C(=O)N1	CDK9 (Homo sapiens)	0
Cc1cccc(C(=O)NC2CC(n3cnc4c(NCc5ccc(N6CCN(C(=O)CNc7cccc8c7C(=O)N([C@H]7CCC(=O)NC7=O)C8=O)CC6)cc5)ncnc43)C2)n1 (stereo partly shown)	CDK9 (Homo sapiens)	0

Hi there! I need Enzyme degradation CDK9 (% remaining) @ 10 μM for each item below, if you can.
1. CC(=O)N[C@H]1C[C@@H](n2cnc3c(NCc4ccc(N5CCN(CC6CCN(C(=O)CNc7ccc8c(c7)C(=O)N([C@H]7CCC(=O)NC7=O)C8=O)CC6)CC5)cc4)ncnc32)C1
2. COc1ccc(C(=O)NC[C@H]2CC[C@H](CN3CCN(c4ccc(Nc5ncnc6c5ncn6[C@H]5C[C@@H](NC(=O)Cc6ccccc6)C5)cc4)CC3)CC2)cc1N1CCC(=O)NC1=O

Result ::
1: 10; 2: 10

###

biological target: CDK2 (Homo sapiens, UniProt P24941); construct: endogenous in cells; host or cells: MDA-MB-231; assay: CDK protein degradation activity (Western blotting), CDK2; format: cell-based; conditions: MDA-MB-231 cells, 1 μM, 16 hours, Western blot
Please provide measured Enzyme degradation CDK2 (% remaining) @ 1 μM for the entries that follow.
Answers are plain numbers, in %.

The cases that follow already have their Enzyme degradation CDK2 (% remaining) @ 1 μM on record.
compound	units-label	result-value
O=C1CC[C@H](N2C(=O)c3cc(F)c(N4CCC(C(=O)N5CCC(CCCN6CCN(c7ccc(Nc8ncnc9c8ncn9[C@H]8C[C@@H](NC(=O)Cc9ccccc9)C8)cc7)CC6)CC5)CC4)cc3C2=O)C(=O)N1	%	30
O=C1CC[C@H](N2C(=O)c3ccc(OCC(=O)N4CCC(CN5CCN(c6ccc(Nc7ncnc8c7ncn8C7CC(NC(=O)Cc8ccccc8)C7)cc6)CC5)CC4)cc3C2=O)C(=O)N1 (stereo partly shown)	%	80
O=C(CNc1ccc2c(c1)C(=O)N(C1CCC(=O)NC1=O)C2=O)NC[C@H]1CC[C@H](CN2CCN(c3ccc(Nc4ncnc5c4ncn5[C@H]4C[C@@H](NC(=O)Cc5ccccc5)C4)cc3)CC2)CC1 (stereo partly shown)	%	80
Cc1cccc(C(=O)N[C@H]2C[C@H](n3cnc4c(NCCCN5CCN(C(=O)CNc6ccc7c(c6)C(=O)N([C@@H]6CCC(=O)NC6=O)C7=O)CC5)ncnc43)C2)n1	%	50
Cc1cccc(C(=O)N[C@H]2C[C@@H](n3cnc4c(NCc5ccc(N6CCN(C(=O)CNc7ccc8c(c7)C(=O)N([C@H]7CCC(=O)NC7=O)C8=O)CC6)cc5)ncnc43)C2)n1	%	20

For every listed record, write down its Enzyme degradation CDK2 (% remaining) @ 1 μM.
1. Cc1cccc(C(=O)N[C@H]2C[C@@H](n3cnc4c(NCc5cccc(N6CCN(C(=O)CNc7ccc8c(c7)C(=O)N([C@H]7CCC(=O)NC7=O)C8=O)CC6)c5)ncnc43)C2)n1
2. Cc1cccc(C(=O)NC2CC(n3cnc4c(Nc5ccc(N6CCN(CCC7CCN(c8ccc9c(c8)C(=O)N([C@H]8CCC(=O)NC8=O)C9=O)CC7)CC6)cc5)ncnc43)C2)n1 (stereo partly shown)
3. Cc1cccc(C(=O)NC2CC(n3cnc4c(NCCC5CCN(CC6CCN(CC7CN(c8ccc9c(c8)C(=O)N([C@H]8CCC(=O)NC8=O)C9=O)C7)CC6)CC5)ncnc43)C2)n1 (stereo partly shown)

Result ::
100
40
50

###

target: CDK2 (Homo sapiens, UniProt P24941); construct: endogenous in cells; host or cells: MDA-MB-231; experiment: CDK protein degradation activity (Western blotting), CDK2; assay type: cell-based; conditions: MDA-MB-231 cells, 0.1 μM, 16 hours, Western blot
Consider the following compounds; for each one, report its Enzyme degradation CDK2 (% remaining) @ 0.1 μM.
Answers are plain numbers, in %.

Worked set:
compound	result-value
O=C1CC[C@H](N2C(=O)C=C(N3CCC(C(=O)N4CCC5(CC4)CC(N4CCN(c6ccc(Nc7ncnc8c7ncn8C7CC(NC(=O)Cc8ccccc8)C7)cc6)CC4)C5)CC3)C2=O)C(=O)N1 (some centres unmarked) [Compound 193]	20
O=C1CC[C@@H](c2cccc(OCC(=O)N3CC(CN4CCC5(CC4)CC(N4CCN(c6ccc(Nc7ncnc8c7ncn8[C@H]7C[C@@H](NC(=O)Cc8ccccc8)C7)cc6)CC4)C5)C3)c2)C(=O)N1 [Compound 276]	30

Attention now turns to another entry.
Enzyme degradation CDK2 (% remaining) @ 0.1 μM reported for this compound O=C1CC[C@H](N2C(=O)c3cc(F)c(N4CCN(CCCC5CCN(c6ccc(Nc7ncnc8c7ncn8[C@H]7C[C@@H](NC(=O)Cc8ccccc8)C7)cc6)CC5)CC4)cc3C2=O)C(=O)N1 [Compound 348] : 30

###

molecular target: CDK9 (Homo sapiens, UniProt P50750); construct: endogenous in cells; host or cells: MDA-MB-231; test: CDK protein degradation activity (Western blotting), CDK9; type: cell-based; conditions: MDA-MB-231 cells, 1 μM, 16 hours, Western blot
Sequence (P50750 whole entry): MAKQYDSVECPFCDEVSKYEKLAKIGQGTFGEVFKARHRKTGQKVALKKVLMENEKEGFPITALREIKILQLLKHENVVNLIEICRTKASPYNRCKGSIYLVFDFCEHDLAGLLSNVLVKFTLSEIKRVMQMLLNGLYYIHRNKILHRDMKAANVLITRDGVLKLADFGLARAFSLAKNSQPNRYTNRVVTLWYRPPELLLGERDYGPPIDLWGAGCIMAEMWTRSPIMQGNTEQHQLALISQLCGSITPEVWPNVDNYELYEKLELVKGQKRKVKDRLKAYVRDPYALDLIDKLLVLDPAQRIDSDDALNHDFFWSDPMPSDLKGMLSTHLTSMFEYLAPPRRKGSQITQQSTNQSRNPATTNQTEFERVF
measured-attribute: Enzyme degradation CDK9 (% remaining) @ 1 μM

compound	measurement-target	result-value
O=C1CCC(N2C(=O)c3ccc(N4CCC(C(=O)N5CC(N6CCN(c7ccc(Nc8ncnc9c8ncn9[C@H]8C[C@@H](NC(=O)Cc9ccccc9)C8)cc7)CC6)C5)CC4)cc3C2=O)C(=O)N1 (stereo partly drawn)	CDK9 (Homo sapiens, UniProt P50750)	30%
O=C1CC[C@H](N2C(=O)c3ccc(N4CC(C(=O)N5CCC(CN6CCN(c7ccc(Nc8ncnc9c8ncn9C8CC(NC(=O)c9cccc(F)n9)C8)cc7)CC6)CC5)C4)cc3C2=O)C(=O)N1 (stereo partly drawn)	CDK9 (Homo sapiens, UniProt P50750)	0/0/0%
Cc1cccc(C(=O)N[C@H]2C[C@@H](n3cnc4c(NCCC5CCN(CC6CCN(C(=O)C7CCN(c8cc9c(cc8F)C(=O)N(C8CCC(=O)NC8=O)C9=O)CC7)CC6)CC5)ncnc43)C2)n1 (stereo partly drawn)	CDK9 (Homo sapiens, UniProt P50750)	0/0/0%

Would you mind listing Enzyme degradation CDK9 (% remaining) @ 1 μM for each of the following compounds?
1. Cc1cccc(C(=O)NC2CC(n3cnc4c(Nc5ccc(N6CCN(C7CC8(CCN(C(=O)C9CCN(c%10ccc%11c(c%10)C(=O)N([C@H]%10CCC(=O)NC%10=O)C%11=O)CC9)CC8)C7)CC6)cc5)ncnc43)C2)n1 (stereo partly drawn)
2. O=C1CC[C@H](N2C(=O)c3cccc(NCC(=O)N4CCC(CN5CCC(CNc6ncnc7c6ncn7C6CC(NC(=O)Cc7ccccc7)C6)CC5)CC4)c3C2=O)C(=O)N1 (stereo partly drawn)
3. O=C1CC[C@H](N2C(=O)c3ccc(N4CCC(C(=O)N5CCC(CN6CCC(CCNc7ncnc8c7ncn8[C@H]7C[C@@H](NC(=O)Cc8ccccc8)C7)CC6)CC5)CC4)cc3C2=O)C(=O)N1
4. O=C1CC[C@H](N2C(=O)c3cc(F)c(N4CCC(CN5CCC(CCNc6ncnc7c6ncn7[C@H]6C[C@@H](NC(=O)c7c(Cl)cccc7Cl)C6)CC5)CC4)cc3C2=O)C(=O)N1
5. O=C1CC[C@@H](c2cccc(OCC(=O)N3CC(CN4CCC5(CC4)CC(N4CCN(c6ccc(Nc7ncnc8c7ncn8[C@H]7C[C@@H](NC(=O)Cc8ccccc8)C7)cc6)CC4)C5)C3)c2)C(=O)N1
6. O=C1CC[C@H](N2C(=O)c3ccc(N4CCC(C(=O)N5CCC6(CC5)CC(N5CCN(c7ccc(Nc8ncnc9c8ncn9[C@H]8C[C@@H](NC(=O)c9c(Cl)cccc9Cl)C8)cc7)CC5)C6)CC4)cc3C2=O)C(=O)N1

Result ::
1. 0/0/0%
2. 0/0/0%
3. 0/0/0%
4. 10%
5. 0%
6. 10/10/10%
